- Tested on: Citrobacter freundii 7521cfr-169 (NDM, ESBLs, AmpC)
- assay text: In vitro antibacterial activity on clinically separated CRE strain, agar dilution MIC
- Assay type: cell-based
- recorded conditions: Table 3, 7521cfr-169 Citrobacter freundii
Structures can show the parent of a compound that is named as a salt.
value type: MIC (µg/mL)
Use µg/mL as the unit, but write only the number.

Exercise: Dear colleague, I am looking for the recorded MIC of the following molecule: CN1CC2(CC(NC(=O)[C@@H]3CC[C@@H]4CN3C(=O)N4OS(=O)(=O)O)C2)C1 [Compound 6, hydrogen sulfate]
Key: 2

Exercise: Dear colleague, I am looking for the recorded MIC of the following molecule: NC(=O)[C@@H]1CC[C@@H]2CN1C(=O)N2OS(=O)(=O)O [AVI sodium salt, Avibactam, reference compound]
Key: 8

Shift focus to the following entry.
Exercise: Dear colleague, I am looking for the recorded MIC of the following molecule: O=C(NC1CC2(CNC2)C1)[C@@H]1CC[C@@H]2CN1C(=O)N2OS(=O)(=O)O [Compound 2]
Key: 2
